Consider the following compounds; for each one, report its EC50.
Tested on: Lu1
PROTOCOL NOTES: Cytotoxicity against human Lu1 cells
Format: functional
RUN PARAMETERS: read-out: ED50 (the source's name)

Some solved entries appear below for comparison.
Quick check: EC50 of C=C(C)[C@@H]1CC[C@]2(C)[C@H](CC=C3[C@@H]4C[C@@](C)(C(=O)O)CC[C@]4(C)CC[C@]32C)[C@@]1(C)CCC(=O)O ?
> 20 µg/mL

Same question for C=C1CC[C@@H]2O[C@]2(C)CC[C@@H]2[C@@H]1CC2(C)C please.
> 20 µg/mL

Each of the following entries comes with a recorded value; kindly state EC50 for each.
1. C=C1CC[C@@H]2[C@H]([C@H]3[C@H]1CC[C@]3(C)O)C2(C)C
2. CC1(C)[C@H](O)CC[C@]2(C)[C@H]3CC=C4[C@@H]5C[C@](C)(C(=O)O)CC[C@]5(C)CC[C@@]4(C)[C@]3(C)CC[C@@H]12
3. CC1(C)C(=O)CC[C@]2(C)[C@H]3CC=C4[C@@H]5C[C@](C)(C(=O)O)CC[C@]5(C)CC[C@@]4(C)[C@]3(C)CC[C@@H]12
4. C=C1CC[C@@H]2[C@H]([C@H]3[C@@H](C)CC[C@@H]13)C2(C)C

1. > 20 µg/mL
2. 11 µg/mL
3. 10 µg/mL
4. > 20 µg/mL

###

Tested on: P388
PROTOCOL NOTES: Cytotoxicity against mouse P388 cells
Type: functional
RUN PARAMETERS: read-out: ED50 (the source's name)
READOUT NAME: EC50

Quick check: EC50 of C=C1CC[C@@H]2[C@H]([C@H]3[C@@H](C)CC[C@@H]13)C2(C)C ?
> 20 µg/mL

Same question for C=C1CC[C@@H]2O[C@]2(C)CC[C@@H]2[C@@H]1CC2(C)C please.
> 20 µg/mL

Same question for CC1(C)C(=O)CC[C@]2(C)[C@H]3CC=C4[C@@H]5C[C@](C)(C(=O)O)CC[C@]5(C)CC[C@@]4(C)[C@]3(C)CC[C@@H]12 please.
0.61 µg/mL

Same question for C=C1CC[C@@H]2[C@H]([C@H]3[C@H]1CC[C@]3(C)O)C2(C)C [SPATHULENOL] please.
> 20 µg/mL

Same question for C=C(C)[C@@H]1CC[C@]2(C)[C@H](CC=C3[C@@H]4C[C@@](C)(C(=O)O)CC[C@]4(C)CC[C@]32C)[C@@]1(C)CCC(=O)O [KOETJAPIC ACID] please.
> 20 µg/mL

Here's the next entry for you.
Quick check: EC50 of CC1(C)[C@H](O)CC[C@]2(C)[C@H]3CC=C4[C@@H]5C[C@](C)(C(=O)O)CC[C@]5(C)CC[C@@]4(C)[C@]3(C)CC[C@@H]12 [KATONIC ACID] ?
0.11 µg/mL

###

Tested on: KB
PROTOCOL NOTES: Cytotoxicity against human KB cells
Format: functional
RUN PARAMETERS: read-out: ED50 (the source's name)
READOUT NAME: EC50

Some solved entries appear below for comparison.
Quick check: EC50 of CC1(C)C(=O)CC[C@]2(C)[C@H]3CC=C4[C@@H]5C[C@](C)(C(=O)O)CC[C@]5(C)CC[C@@]4(C)[C@]3(C)CC[C@@H]12 ?
4.9 µg/mL

Same question for C=C(C)[C@@H]1CC[C@]2(C)[C@H](CC=C3[C@@H]4C[C@@](C)(C(=O)O)CC[C@]4(C)CC[C@]32C)[C@@]1(C)CCC(=O)O please.
> 20 µg/mL

Same question for CC1(C)[C@H](O)CC[C@]2(C)[C@H]3CC=C4[C@@H]5C[C@](C)(C(=O)O)CC[C@]5(C)CC[C@@]4(C)[C@]3(C)CC[C@@H]12 please.
8.3 µg/mL

Same question for C=C1CC[C@@H]2O[C@]2(C)CC[C@@H]2[C@@H]1CC2(C)C please.
> 20 µg/mL

Same question for C=C1CC[C@@H]2[C@H]([C@H]3[C@@H](C)CC[C@@H]13)C2(C)C please.
> 20 µg/mL

Here's the next entry for you.
Quick check: EC50 of C=C1CC[C@@H]2[C@H]([C@H]3[C@H]1CC[C@]3(C)O)C2(C)C ?
> 20 µg/mL
